All values here come from patent US20200247800A1.

Measured pIC50 by item
target: human NOX4 (Homo sapiens); construct: membrane fraction used; assay: Cell free membrane based in vitro NOX4 assay: H2O2 production by membranes expressing human NOX4, measured with Amplex Red; settings: class symbols
Sequence (Q9NPH5 whole entry): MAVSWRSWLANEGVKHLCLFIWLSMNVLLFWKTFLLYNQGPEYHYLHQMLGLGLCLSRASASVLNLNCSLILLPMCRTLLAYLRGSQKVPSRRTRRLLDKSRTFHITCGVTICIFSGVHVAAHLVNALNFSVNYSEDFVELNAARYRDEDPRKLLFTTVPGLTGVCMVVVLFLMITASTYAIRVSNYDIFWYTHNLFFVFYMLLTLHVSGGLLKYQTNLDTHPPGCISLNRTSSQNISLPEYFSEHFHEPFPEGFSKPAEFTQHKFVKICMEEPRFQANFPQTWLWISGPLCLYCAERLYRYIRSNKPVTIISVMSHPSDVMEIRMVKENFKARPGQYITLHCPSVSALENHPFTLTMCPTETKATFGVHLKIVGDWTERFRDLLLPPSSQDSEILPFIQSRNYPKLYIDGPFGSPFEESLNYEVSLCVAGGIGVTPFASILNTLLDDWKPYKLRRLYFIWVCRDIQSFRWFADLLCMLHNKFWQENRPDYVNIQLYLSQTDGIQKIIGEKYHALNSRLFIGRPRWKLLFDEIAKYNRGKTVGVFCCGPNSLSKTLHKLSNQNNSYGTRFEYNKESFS
Sequence (P13498 whole entry partner): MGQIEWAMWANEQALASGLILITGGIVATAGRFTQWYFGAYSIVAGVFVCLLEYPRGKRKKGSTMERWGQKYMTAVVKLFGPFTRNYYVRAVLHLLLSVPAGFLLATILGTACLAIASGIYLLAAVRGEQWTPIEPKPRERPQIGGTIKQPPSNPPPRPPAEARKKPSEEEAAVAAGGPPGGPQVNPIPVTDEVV
pIC50: −log10 of the molar value.

Chem smiles: CCc1nn(CCn2cccn2)c2[nH]c(-c3c(F)cccc3F)c(O)c(=O)c12
Reported result: > 7.30
--
Chem smiles: Cc1cc(F)ccc1-n1nc(C)c2c(=O)c(O)c(-c3ccccc3Cl)[nH]c21
Reported result: < 6.82
--
Chem smiles: Cc1nn(Cc2ccccc2)c2[nH]c(-c3c(F)cccc3F)c(O)c(=O)c12
Reported result: > 7.30
--
Chem smiles: Cn1nc(C(F)(F)F)c2c(=O)c(O)c(-c3ccc(Cl)cc3F)[nH]c21
Reported result: < 6.82
--
Chem smiles: CCc1nn(CC)c2[nH]c(-c3c(F)cccc3F)c(O)c(=O)c12
Reported result: > 7.30
--
Chem smiles: Cc1nn(C2CCCCC2)c2[nH]c(-c3c(F)cccc3F)c(O)c(=O)c12
Reported result: > 7.30
--
Chem smiles: Cc1nn(CCN(C)C)c2[nH]c(-c3ccccc3Cl)c(O)c(=O)c12
Reported result: 7.00 to 7.30
--
Chem smiles: Cn1nc(CN2CCN(C3COC3)CC2)c2c(=O)c(O)c(-c3c(F)cccc3F)[nH]c21
Reported result: < 6.82

Q: Give recorded pIC50 with human NOX4 (Homo sapiens) for the following compound: Cn1nc(C2CCOCC2)c2c(=O)c(O)c(-c3ccccc3Cl)[nH]c21
Ans: > 7.30

Q: Give recorded pIC50 with human NOX4 (Homo sapiens) for the following compound: NC(=O)c1nsc2c(=O)c(O)c(-c3ccccc3Cl)[nH]c12
Ans: < 6.82
